Entries and their Bmax values follow.
test.target: T1, CH2-4 constant domains of human IgE linked to a transmembrane protein, on 293 cells (human, UniProt P01854-1 104-428)
T1 construct: domain: CH2-4 constant domains; also called human IgE-expressing 293 cells
T1 sequence (P01854 other isoform, or with tags, fused parts or gaps): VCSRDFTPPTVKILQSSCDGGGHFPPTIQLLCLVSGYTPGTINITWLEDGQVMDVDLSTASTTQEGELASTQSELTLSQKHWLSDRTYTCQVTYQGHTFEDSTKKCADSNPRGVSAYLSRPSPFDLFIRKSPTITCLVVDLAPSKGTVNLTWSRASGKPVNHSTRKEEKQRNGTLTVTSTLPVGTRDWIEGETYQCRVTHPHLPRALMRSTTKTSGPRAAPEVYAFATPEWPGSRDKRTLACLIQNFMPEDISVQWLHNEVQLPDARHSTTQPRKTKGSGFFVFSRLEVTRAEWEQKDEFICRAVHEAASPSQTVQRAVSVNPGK
protocol: flow cytometry, 293 cells expressing human IgE CH2-4

binder	Bmax / MFI
hzB10v33-NNT (Fc fusion, monomeric) VHH-Fc: EVQLLESGGGEVQPGGSLRLSCVASGLTFSSYNMGWLRQAPGKEREFVSLSGSSSTSTYYAESVKGRFTISRDNSKNTVYLQMNSLRAEDTAVYYCAARRLLSTYWSDRSWDFWGQGTQVTVEPGGPSVFLFPPKPKDTLMISRTPEVTCVVVDVSHEDPEVKFNWYVDGVEVHNAKTKPREEQYNSTYRVVSVLTVLHQDWLNGKEYKCKVSNKALPAPIEKTISKAKGQPREPQVYTLPPSRDELTKNQVNLTCLVKGFYPSDIAVEWESNGQPENNYKTTPPVLDSDGSFFLNSTLTVDKSRWQQGNVFSCSVMHEALHNHYTQKSLSLSPGK	617000
hzB10v27-NNT (Fc fusion, monomeric) VHH-Fc: EVQLLESGGGEVQPGGSLRLSCVASGLTFSSYNMGWLRQAPGKEREFVGLSGSSSTSTYYAESVKGRFTISRDNSKNTVYLQMNSLRAEDTAVYYCAARRLLSTYWSDRSWDFWGQGTQVTVEPGGPSVFLFPPKPKDTLMISRTPEVTCVVVDVSHEDPEVKFNWYVDGVEVHNAKTKPREEQYNSTYRVVSVLTVLHQDWLNGKEYKCKVSNKALPAPIEKTISKAKGQPREPQVYTLPPSRDELTKNQVNLTCLVKGFYPSDIAVEWESNGQPENNYKTTPPVLDSDGSFFLNSTLTVDKSRWQQGNVFSCSVMHEALHNHYTQKSLSLSPGK	753000
hzB10v28-NNT (Fc fusion, monomeric) VHH-Fc: EVQLLESGGGEVQPGGSLRLSCVASGLTFSSYNMGWLRQAPGKEREFVGLSGSSSTSTYYAESVKGRFTISRDNSKNTVYLQMSSLRAEDTAVYYCAARRLLSTYWSDRSWDFWGQGTQVTVEPGGPSVFLFPPKPKDTLMISRTPEVTCVVVDVSHEDPEVKFNWYVDGVEVHNAKTKPREEQYNSTYRVVSVLTVLHQDWLNGKEYKCKVSNKALPAPIEKTISKAKGQPREPQVYTLPPSRDELTKNQVNLTCLVKGFYPSDIAVEWESNGQPENNYKTTPPVLDSDGSFFLNSTLTVDKSRWQQGNVFSCSVMHEALHNHYTQKSLSLSPGK	1.12e+08
